Reference for the values: the nanobody polyreactivity screen of Harvey et al. (2022)

assay: yeast display, Sf9 membrane polyspecificity reagent, FACS + sequencing; frameworks hold sequencing errors
OBSERVATION TYPE: polyreactivity (PSR sort gate)

RECORD SEQUENCE: QVQLVESGGGLVQAGGSLRLSCAASGSTFVGNVMGWYRQAPGKERELVATISRSGGRTYYADSVKGRFTISRDNAKNTVYLQMNSLKPEDTAVYYCAAGFVYTTASRWGGRTRYDYWGQGTQVTVSS
polyreactivity (PSR sort gate): high polyreactivity

RECORD SEQUENCE: QVQLVESGGGLVQAGGSRRLSCAASGSIFDYYVMGWYRQAPVKERELVAAISWSGASTYSADSVKGRFTISRDNAKNTVYLQMNSLKPEDTAVYYCAADYGVNTLIDYDYWGQGTQVTVSS
polyreactivity (PSR sort gate): low polyreactivity

RECORD SEQUENCE: QVQLVESGGGLVQAGGSLRLSCAASGSTFVVNAMGWYRQAPGKERELVAAIRGSAGSTYYADSVKGRFTISRDNAKNTVYLQMNSLKPEDTAVYYCAAYYRRYKSKYDYWGQGTQVTVSS
polyreactivity (PSR sort gate): high polyreactivity

RECORD SEQUENCE: QVQLQECGGGLVQAGGSLRLSCAASGNIFDADIMGWYRQAPGKERELVASVTDGGSTNYADSVKGRFTISRDNAKITVYLQLNSLKPEDTAVYYCAAIVYPDILTDFDYDYDYFYWGQGTQVTVGS
polyreactivity (PSR sort gate): low polyreactivity

RECORD SEQUENCE: QVQLVESGGGLVQAGGSLRLSCAASGSTFWIYTMGWYRQAPGKERELVAAITWSGGRTYYADSVKGRFTISRDNAKNTVYLQMNSLKPEDTAVYYCNADVYSYRPSTIQRYVLFDYWGQGTQVTVSS
polyreactivity (PSR sort gate): low polyreactivity

RECORD SEQUENCE: QDQLVESGGGLVQAGGSLRLSCAASGLIFPAYTMGWSRQAQGKERELVAAISRSGGSTYYADSVKGRFTISRDNAKNTVYLQMNSLKPEDTAVYYCAAYYSGGYDYWGLGTQVTVSS
polyreactivity (PSR sort gate): high polyreactivity

In: Reported polyreactivity (PSR sort gate) for QVQLVESRGGLVQEGGSLRLSCAASGRIFSVYAMGSYRQEPGKERELVASISSGGSTYYADSVMWRFTISRDNAKNTVYLQRTSQKAEDTAVYYCAAGYWTTFRSIYDYWGQGTQVTVSS : what is it?
Out: low polyreactivity

In: Same thing, different sequence: QVQLVESGGGLVQAGGSLRVSCASSGSTFVSYAMVWYRQAPGKERELVASISGSDGRTYYADSVKGRFTISRDNAKNTVYLQMKSLNPEDTAVYYCAKRYWRHPVFYLYDYWVQGTQVTVSS
Out: high polyreactivity

In: Thanks! And QVQLVESGGGLVQAGGSLRLSCAASGNIFFTYAMGWYIQEPGKERELVAAITSGGRTYYADSVKGRFTISRDNAKNTLHLQMNSLKPEDTAVYYCAAYYKYLGYGYWGQGTQVTVSS ?
Out: high polyreactivity

In: Another: QVQLVESGGGLVQAGGSLRLSCAASGFTFDGYAMGWDRQAPGKERELVAAISGGGSTYYADSVKGRFTISRDNAKNTVYLQMNSLKPEDTAVYYCAVVYRYRTRSRSYFLPFDYWGQGTQVTVSS
Out: high polyreactivity

In: Can you handle QVQLVESGGGLVQAGGSLRLSCAASGSTFPPNAMGWYRQAPGKERELVAVISYSDGSTYYADSVKGRFTISRDNAKNTVYLQMNSLKPEDTAVYYCAAYSGYGGVSMYYWGQGTQVTGSS next?
Out: low polyreactivity

In: Another sequence to check: QVQLVESGGGLVQAGGSLRLSCAASGSTINSYTKGWYSQAPRKERELVAAISGSSGRTYDADSVKGRFTISRDNAKNTVYLQMNSLKPEDTAVYYGAAVDLYGGSDYWGQGTQVTVSS
Out: high polyreactivity

In: Check QVQLVESGGGLVQAGGSLRLSCAASGSTLAIYAMGWYRQAPGKEREWVAAISRSGGTTYYADSVKGRFTISRDNAKNTVYLQMNSLKPEDTAVYYCYPYFWYPDGYTYDYWGQGTQVTVSS too.
Out: high polyreactivity
